Origin of measurements: paper PMC10054428

Test: pKa by potentiometric titration (SiriusT3)
Assay type: physicochemical
Conditions Used: phenolic group (9, 17–19), secondary amine group (5); 25 °C, n.3; read-out: pKa2

Smiles Code | pKa
Cc1cc(O)ccc1C(=N)NO | 9.17
Cc1cc(C(=N)NO)ccc1O | 8.97
N=C(NO)c1ccc(O)cc1 | 8.64
Cc1cc(/C(N)=N/O)cc(C)c1O | 9.32

----------
System: NT650/PD-L1 (recombinant human PD-L1) (Homo sapiens)
Construct: purchased Abcam ab167713
Test: Full-point MST binding assay (Kd) at pH 7.2 and 6.2
Conditions Used: pH 7.2, n.3; read-out: Kd ± c.v.
pKd: −log10 of the molar value.
Measured pKd accompanies every entry in the list below.

Smiles Code | pKd
NCCSc1c[nH]c2ccccc12 | < 3.60
COC(=O)c1ccc(C)c2c1-c1ccccc1OC2 | < 3.60
Nc1[nH]ncc1-c1ccc(F)cc1F | < 3.60
N=C(NO)c1ccc(O)cc1 | < 3.00
O=C(NCc1ccc(F)cc1)c1ccc2nc[nH]c2c1 | < 3.60
Cc1cc(/C(N)=N/O)cc(C)c1O | 3.79
[H]/N=C1\NC(=O)[C@H](CC(=O)Nc2cccc3ccccc23)S1 | < 3.60
NCc1n[nH]c(=O)c2ccccc12 | < 3.60
N=C(NO)c1ccccc1-c1ccccc1 | 3.83
Cc1cc(C(=N)NO)ccc1O | < 3.00
Cc1cc(O)ccc1C(=N)NO | < 3.00
Cc1ccc(Cn2c(S)nc3c2c(=O)n(C)c(=O)n3C)cc1 | < 3.60
Cc1cc(C)cc(C(=N)NO)c1 | < 3.00
O=C(O)c1cccc2c1-c1ccccc1OC2 | < 3.60

----------
Test: pKa by potentiometric titration (SiriusT3)
Assay type: physicochemical
Conditions Used: oxime nitrogen atom; 25 °C, methanol co-solvent, Yasuda–Shedlovsky extrapolation, n.3; read-out: pKa1

Compound | pKa
Cc1cc(O)ccc1C(=N)NO [VIS1203] | 5.38
Cc1cc(/C(N)=N/O)cc(C)c1O [VIS310] | 5.65
Cc1cc(C(=N)NO)ccc1O [VIS1202] | 5.38
N=C(NO)c1ccc(O)cc1 [VIS1201] | 5.35
N=C(NO)c1ccccc1-c1ccccc1 [VIS1204] | 5.3
Cc1cc(C)cc(C(=N)NO)c1 [VIS1200] | 5.26

----------
System: NT650/PD-L1 (recombinant human PD-L1) (Homo sapiens, UniProt Q9NZQ7)
Construct: purchased Abcam ab167713
Sequence (Q9NZQ7 19-290): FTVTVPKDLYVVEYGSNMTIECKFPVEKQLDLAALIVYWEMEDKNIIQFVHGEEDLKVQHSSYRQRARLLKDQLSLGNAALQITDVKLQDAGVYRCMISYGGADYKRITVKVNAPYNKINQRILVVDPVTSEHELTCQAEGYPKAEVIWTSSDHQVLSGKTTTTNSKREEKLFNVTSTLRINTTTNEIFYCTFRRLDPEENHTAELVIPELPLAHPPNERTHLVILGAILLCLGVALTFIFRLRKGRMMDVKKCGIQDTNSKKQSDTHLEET
Test: Full-point MST binding assay (Kd) at pH 7.2 and 6.2
Conditions Used: pH 6.2; BEI = pKd/MW (kDa)
Measured BEI (pH 6.2) accompanies every entry in the list below.
Measurement Kind: BEI (pH 6.2)

Smiles Code | Experimental Result
Cc1cc(/C(N)=N/O)cc(C)c1O | 24.0
N=C(NO)c1ccc(O)cc1 | 28.6
Cc1cc(C(=N)NO)ccc1O | 25.6
Cc1cc(O)ccc1C(=N)NO | 25.7
N=C(NO)c1ccccc1-c1ccccc1 | 19.6
Cc1cc(C)cc(C(=N)NO)c1 | 24.5

----------
System: NT650/PD-L1 (recombinant human PD-L1) (Homo sapiens, UniProt Q9NZQ7)
Construct: purchased Abcam ab167713
Test: Single-point MST binding assay
Conditions Used: 250 µM compound, NT650/PD-L1
Text: Putative hit compounds were defined as those molecules inducing a thermophoretic movement of the ligand-bound complex with a fluorescent signal (F-norm) outside the signal value and three-fold standard deviations of the negative control (vehicle, DMSO). Biophysical Binding Assays. […]
Measurement Kind: Single-point binding result (in words)

Smiles Code | System | Experimental Result
[H]/N=C1\NC(=O)[C@H](CC(=O)Nc2cccc3ccccc23)S1 | NT650/PD-L1 (recombinant human PD-L1) (Homo sapiens, UniProt Q9NZQ7) | hit compounds
Cc1cc(/C(N)=N/O)cc(C)c1O | NT650/PD-L1 (recombinant human PD-L1) (Homo sapiens, UniProt Q9NZQ7) | hit compounds
NCCSc1c[nH]c2ccccc12 | NT650/PD-L1 (recombinant human PD-L1) (Homo sapiens, UniProt Q9NZQ7) | hit compounds
